These data points were gathered from ChEMBL document CHEMBL1759833.

MIC for assorted molecules
# Test system: Bacillus subtilis
# EXPERIMENT: Antibacterial activity against Bacillus subtilis MTCC 121 for 24 hrs by macrodilution method
# Type: functional
# CONDITION SUMMARY: MTCC 121, 24 h
I'd appreciate it if you included the unit after the number.

QUERY: Supply measured MIC of NS(=O)(=O)c1ccc(-n2cc(C(=O)O)c(-c3ccc([N+](=O)[O-])cc3)n2)cc1 in your reply.
RESULT: 128 µg/mL

###

# System: Bacillus subtilis
# EXPERIMENT: Antibacterial activity against Bacillus subtilis MTCC 121 for 24 hrs by macrodilution method
# Type: functional
# CONDITION SUMMARY: MTCC 121, 24 h
MIC for assorted compounds
Use µg/mL as the unit, but write only the number.

Known MIC results, listed for orientation:
COc1ccc(-c2nn(-c3ccc(S(N)(=O)=O)cc3)cc2C(N)=S)cc1 = 128
Cc1ccc(-c2nn(-c3ccc(S(N)(=O)=O)cc3)cc2C(=O)O)cc1 = 64
NC(=S)c1cn(-c2ccc(S(N)(=O)=O)cc2)nc1-c1ccc(Br)cc1 = 64
NC(=S)c1cn(-c2ccc(S(N)(=O)=O)cc2)nc1-c1ccccc1 = 128
O=C(O)c1cn(C2CC2)c2cc(N3CCNCC3)c(F)cc2c1=O = 5

QUERY: Give MIC for this entry on Bacillus subtilis: NS(=O)(=O)c1ccc(-n2cc(C(=O)O)c(-c3cccs3)n2)cc1
RESULT: 128

QUERY: Give MIC for this entry on Bacillus subtilis: NS(=O)(=O)c1ccc(-n2cc(C(=O)O)c(-c3ccc(F)cc3)n2)cc1
RESULT: 64

QUERY: Give MIC for this entry on Bacillus subtilis: COc1ccc(-c2nn(-c3ccc(S(N)(=O)=O)cc3)cc2C(=O)O)cc1
RESULT: 64
